Molecular target: biotinylated CD59 (Homo sapiens, UniProt P13987)
Construct: Recombinant soluble human CD59 with an additional C-terminal cysteine residue
Sequence (P13987 26-102 limits assumed): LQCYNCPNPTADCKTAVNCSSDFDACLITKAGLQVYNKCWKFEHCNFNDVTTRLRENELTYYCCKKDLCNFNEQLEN
Experiment: mRNA-display cyclic peptide screen against CD59-biotin, NGS abundance after 6th selection round
Details: NGS sample Seq II, sheet R6 (6th selection round)
Source text: To discover novel non‐protein CD59 ligands, we screened a library of 10^12 cyclic peptides against CD59 using mRNA‐display (Figure 2a).^[ [23], [24], [25], [26], [27], [28], [29] ^] Briefly, an mRNA library was designed in which the start codon was reprogrammed from Met to N‐chloroacetyl‐D‐Tyr (ClAc‐D‐Tyr), followed by 10–12 randomly encoded natural amino acids, a Cys residue, a (GlySer)3 linker, and a stop codon. […]
Counts (raw counts for peptide sequence), Seq II for assorted sequences
parameter-measured: Counts (raw counts for peptide sequence), Seq II

>>> measurement("VARGDWNHQFY")
7
>>> measurement("CFAARLSNGDT")
7
>>> measurement("GRLNECHVIRP")
7
>>> measurement("TFRSRTSCGAV")
7
>>> measurement("FIRGNSTSVLFAAAAAAARTGGG")
7
>>> measurement("CIRGTPTTV")
3
>>> measurement("CYTYRSLDPQSV")
9
>>> measurement("SVRGDLYSVLG")
7
>>> measurement("HVFGNRPFTRG")
5
>>> measurement("GRYNECHFITS")
6
>>> measurement("FVRGNRYSVLG")
5
>>> measurement("HAFGNRSFTRG")
5
>>> measurement("FARGDLYSVLG")
5
>>> measurement("LWGTRSFTLVRS")
5
>>> measurement("HVYGNRSFTRG")
5
>>> measurement("LVRGDLYSVLG")
7
>>> measurement("PAWGNRQIQYY")
3
>>> measurement("CFRNRIDLIS")
5
>>> measurement("FTRGNSTSVLF")
7
>>> measurement("NYVERLCTSG")
5
>>> measurement("GYLNECHALYTR")
9
>>> measurement("STRRDRLGLTC")
9
>>> measurement("TLSTNRDLIRLLAAAAAAARTGGG")
9
>>> measurement("FARGDWNHQFY")
3
>>> measurement("ASWLPSPCKFS")
4
>>> measurement("DCWVRGSRNYT")
6
>>> measurement("CLRRSFLDNAGV")
7
>>> measurement("YLSGSSNFARG")
7
>>> measurement("SAWGNRLIQYY")
5
>>> measurement("HVFGNRSSTRG")
6

====

Entries and their measured Counts (raw counts for peptide sequence), Seq II follow.
Molecular target: biotinylated CD59 (Homo sapiens)
Construct: Recombinant soluble human CD59 with an additional C-terminal cysteine residue
Sequence (P13987 26-102 limits assumed): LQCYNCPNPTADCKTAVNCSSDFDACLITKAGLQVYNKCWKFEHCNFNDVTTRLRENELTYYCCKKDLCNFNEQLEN
Test: mRNA-display cyclic peptide screen against CD59-biotin, NGS abundance after 6th selection round
Settings: NGS sample Seq II, sheet R6 (6th selection round)
parameter-measured: Counts (raw counts for peptide sequence), Seq II

>>> measurement("FVRGDLNSVLG")
5
>>> measurement("CFSARAIHGSL")
6
>>> measurement("FVRGDLYPVLG")
5

====

Molecular target: biotinylated CD59 (Homo sapiens, UniProt P13987)
Construct: Recombinant soluble human CD59 with an additional C-terminal cysteine residue
Sequence (P13987 26-102 limits assumed): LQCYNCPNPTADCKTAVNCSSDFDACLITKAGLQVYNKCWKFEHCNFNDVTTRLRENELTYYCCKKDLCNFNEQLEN
Test: mRNA-display cyclic peptide screen against CD59-biotin, NGS abundance after 6th selection round
Conditions: counts normalised by total counts of sample Seq I; percentage of the pool, sheet R6
parameter-measured: Percentage Seq I (%)

>>> measurement("CYGSRTFIYAWS")
0.026
>>> measurement("CYGGRTYIYAWS")
0.018
>>> measurement("YVRGDAWTVLG")
0.027
>>> measurement("FVTGNRDRTRG")
0.019
>>> measurement("CYTAGSASWSRG")
0.726
>>> measurement("CPQLILRGWQ")
0.030
>>> measurement("WILGSRWWTQS")
0.921
>>> measurement("HVFGDRSFTRG")
0.028
>>> measurement("WRDRFDRCVL")
0.020
>>> measurement("CLRRSYEATSI")
0.020
>>> measurement("IATGSKLYAKG")
0.033
>>> measurement("YVFWSRTHTYG")
0.172
>>> measurement("WRDRFDQCVP")
0.038

====

Molecular target: biotinylated CD59 (Homo sapiens, UniProt P13987)
Construct: Recombinant soluble human CD59 with an additional C-terminal cysteine residue
Sequence (P13987 26-102 limits assumed): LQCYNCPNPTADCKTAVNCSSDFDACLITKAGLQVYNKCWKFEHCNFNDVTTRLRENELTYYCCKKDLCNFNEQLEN
Assay: mRNA-display cyclic peptide screen against CD59-biotin, NGS abundance after 6th selection round
Conditions: raw NGS counts of peptide sequence, sequencing sample Seq II, sheet R6 (6th selection round)
Recorded Counts Seq II values for a group of sequences are listed next.
parameter-measured: Counts Seq II

>>> measurement("IQSGSQSWSRG")
15
>>> measurement("CFTNRLDNSST")
29
>>> measurement("TISGGRDYTRG")
403
>>> measurement("IAFGSRFHSYQ")
279
>>> measurement("CFSHRRLEYGV")
20
>>> measurement("CFRNRVLEITST")
14
>>> measurement("YIVGSSDYTRG")
167
>>> measurement("CYGGRTFIYAWT")
15
>>> measurement("SSWAQLPCKR")
13
>>> measurement("QWNRWYGMDEL")
112
>>> measurement("CYGGRAFIYAWS")
19
>>> measurement("QWNRWYGIDER")
10
>>> measurement("CFRYRVTPTSY")
6
>>> measurement("WILGSRWWTQT")
13

====

Target: biotinylated CD59 (Homo sapiens, UniProt P13987)
Construct: Recombinant soluble human CD59 with an additional C-terminal cysteine residue
Sequence (P13987 26-102 limits assumed): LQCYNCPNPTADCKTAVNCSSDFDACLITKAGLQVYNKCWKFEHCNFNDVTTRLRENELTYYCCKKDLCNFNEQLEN
Test: mRNA-display cyclic peptide screen against CD59-biotin, NGS abundance after 6th selection round
Details: percentage of the pool averaged across the two sequencing samples, sheet R6
parameter-measured: Percentage Average (%)

>>> measurement("CFVRRLNDLTTT")
0.129
>>> measurement("LYGNRDYSFYRP")
0.166
>>> measurement("LCSVRGSNDWI")
0.074
>>> measurement("SAWGNRQIQYC")
0.033
>>> measurement("FVRGDRYSVLG")
0.042
>>> measurement("HVLGNRSFTRG")
0.077
>>> measurement("CFRNRVLEITST")
0.037
>>> measurement("CLRRSYEATSI")
0.021
>>> measurement("GRLNECHVIWS")
0.026
>>> measurement("QFAHRISSCAS")
0.031
>>> measurement("YARGDASHTIW")
0.049
>>> measurement("FVRGGLYSVLG")
0.019
>>> measurement("SVTGNRDHTRG")
0.023
>>> measurement("CFKHRLGTDSA")
0.091
>>> measurement("CFSSRVQSGDT")
0.202
>>> measurement("VVRGGTAFRYE")
0.024
>>> measurement("WVYGSRYWRSI")
0.022
>>> measurement("WRDRFDQCVP")
0.046
>>> measurement("YVFGNRSFTRG")
0.514
>>> measurement("GYLNECWYGLS")
0.091
>>> measurement("CFAGRLTIGAV")
0.056
>>> measurement("STWGNRNETRG")
0.028
>>> measurement("CFSRRLTAGAS")
0.026
>>> measurement("YCWVRGSRNYT")
0.062
>>> measurement("YLFGDRFSVRG")
0.097
>>> measurement("CYGGRTFIYVWS")
0.031
>>> measurement("GYLNECHTLYTR")
0.637
>>> measurement("FVRGNSTSVLF")
0.019
>>> measurement("FVRGDQYSVLG")
0.069
>>> measurement("CFANRLYGSDSR")
0.040
>>> measurement("DPWCTPFSNVT")
0.198
>>> measurement("LWGTHSYIYYRP")
0.486
>>> measurement("CYGGRTSIYAWS")
0.028
>>> measurement("CFSARTDSSGT")
0.046
>>> measurement("HVFGNRSFTRG")
5.579
>>> measurement("FVAGNRDHTRG")
0.020
>>> measurement("SRNGIQFTCS")
0.037
>>> measurement("CRGNRFYQLSFH")
0.170
>>> measurement("CFYTRIDAFST")
0.080
>>> measurement("LLGSSSYVKFWY")
0.259
>>> measurement("AVRGSSFYVWG")
0.102
>>> measurement("TFAHRVGSCQST")
0.022
>>> measurement("CPQLILRGWQ")
0.037
>>> measurement("IASGSLHFVFY")
0.030
>>> measurement("CFQRRTLGPDAI")
0.091
>>> measurement("YIIGSSDYTRG")
0.036
>>> measurement("HAFGSRDITYY")
0.259
>>> measurement("LKPNGRCLPKV")
0.277
>>> measurement("CFAGRLTEGV")
0.040
>>> measurement("NSCPDWVRGSRT")
0.246
>>> measurement("WRDRLDQCVL")
0.020
>>> measurement("QWNRWYGIDEL")
0.072
>>> measurement("CFASRTLLNTSV")
0.103
>>> measurement("CFTHRLTDFGT")
0.061
>>> measurement("CFSWRLGPAEK")
0.024
>>> measurement("CFTNRLDNSST")
0.070
>>> measurement("CFAGRLTIDAV")
2.599
>>> measurement("CYGGQTFIYAWS")
0.028
>>> measurement("FVRGDLYSVFG")
0.024
>>> measurement("CFSYRIRSAYDL")
0.029
>>> measurement("SSYRELAHLPC")
0.039
>>> measurement("SSALERIGKCP")
0.219
>>> measurement("YIYWSFTSARG")
0.041
>>> measurement("SWTWGNGSSVRG")
0.186
>>> measurement("LRGSYDYQLYFG")
0.018
>>> measurement("CFSRRLTAGAT")
0.040
>>> measurement("CYGGRTFIYAWP")
0.066
>>> measurement("CEALLRRGWD")
0.087
>>> measurement("CFGRRADPDGI")
0.035
